biological target: beta-catenin/TCF4 engagement (Homo sapiens, UniProt P35222); construct: expressed in transfected cells; host or cells: HEK293; experiment: Nano-BRET target engagement assay (B-cat-Halo & TCF4-Luc in HEK293 cells); assay type: cell-based; conditions: absolute IC50; read-out: NanoBRET Abs IC50
Sequence (P35222 whole entry): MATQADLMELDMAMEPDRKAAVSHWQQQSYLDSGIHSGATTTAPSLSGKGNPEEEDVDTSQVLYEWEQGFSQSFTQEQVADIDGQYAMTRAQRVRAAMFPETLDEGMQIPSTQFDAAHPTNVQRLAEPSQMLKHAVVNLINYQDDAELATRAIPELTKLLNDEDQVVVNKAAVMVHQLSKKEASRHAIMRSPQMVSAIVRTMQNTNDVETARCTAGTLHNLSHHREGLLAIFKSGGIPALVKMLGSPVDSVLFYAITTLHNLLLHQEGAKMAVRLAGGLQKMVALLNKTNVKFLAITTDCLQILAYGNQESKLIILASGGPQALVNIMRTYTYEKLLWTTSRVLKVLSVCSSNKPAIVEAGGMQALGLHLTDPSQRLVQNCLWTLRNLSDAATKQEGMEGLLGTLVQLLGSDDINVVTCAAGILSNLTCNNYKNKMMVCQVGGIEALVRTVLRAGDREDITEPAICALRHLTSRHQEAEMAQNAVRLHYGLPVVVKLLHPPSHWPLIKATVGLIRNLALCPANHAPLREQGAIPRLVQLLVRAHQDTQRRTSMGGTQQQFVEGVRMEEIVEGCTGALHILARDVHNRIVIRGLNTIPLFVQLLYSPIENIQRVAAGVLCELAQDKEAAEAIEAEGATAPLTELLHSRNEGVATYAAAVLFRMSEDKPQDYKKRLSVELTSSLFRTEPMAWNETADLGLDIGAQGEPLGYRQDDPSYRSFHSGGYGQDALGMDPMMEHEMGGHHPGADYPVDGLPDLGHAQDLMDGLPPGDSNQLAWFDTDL
Measured pIC50 values are reported for all entries that follow.
Scale: pIC50 equals -log10([C]), with [C] in mol/L.

compound	study.target	pIC50
CC(=O)N1CCC[C@]12CC=CCCCC1(CCCC=CCCCOC(=O)N3CC[C@@](C(=O)N[C@@H](Cc4ccsc4)C(=O)N[C@@H](Cc4csc5ccccc45)C(=O)N[C@@H](CCC(N)=O)C(N)=O)(C3)NC(=O)[C@H](CC(N)=O)NC(=O)[C@H](Cc3ccccc3)NC(=O)[C@H](C)NC(=O)[C@H](C)NC(=O)[C@H](CCC(=O)O)NC(=O)[C@H](CC(=O)O)NC1=O)NC(=O)[C@H](CC(C)(C)C)NC(=O)[C@H](CC(=O)O)NC2=O (some centres unmarked) [I-691]	beta-catenin/TCF4 engagement (Homo sapiens, UniProt P35222)	4.77

// query Request the reported pIC50 associated with CC(=O)N1CCC[C@]12CC=CCCCC1(CCCC=CCCCOC(=O)N3CC[C@@](C(=O)N[C@@H](Cc4ccccc4Cl)C(=O)N[C@@H](Cc4csc5ccccc45)C(=O)N[C@H](CO)[C@@H](C)O)(C3)NC(=O)[C@H](Cc3ccccc3)NC(=O)[C@H](Cc3ccccc3)NC(=O)[C@H](C)NC(=O)[C@H](C)NC(=O)[C@H](CC(=O)O)NC(=O)[C@H](CC(=O)O)NC1=O)NC(=O)[C@H](CC(C)(C)C)NC(=O)[C@H](CC(=O)O)NC2=O (some centres unmarked)
// result 4.69

These measurements were taken from patent US20240116985A1.
